assay-text: MTT assay in placental explants (tissue viability)
Type: cell-based, human
experimental-conditions: female, human, term placental villous tissue explants, 1 µM, 72 h exposure, read-out: viability in explants, % of control values
value-type: viability at 72 h, 1 µM (%)
Numbers only; they are read as %.

What viability at 72 h, 1 µM value was documented for this molecule, COc1cccc2c1C(=O)c1c(O)c3c(c(O)c1C2=O)C[C@@](O)(C(=O)CO)C[C@@H]3O[C@H]1C[C@H](N)[C@H](O)[C@H](C)O1 ?
83
